Every entry's value here was drawn from the array DNA melting data of Ke et al. (doi:10.1101/2024.01.08.574731).

Tm reference
Assay: melting temperature; fluorescence melt of hairpins on a sequencing array, two-state fit, raised by 9.35 °C to match UV melts
Conditions: sodium 0.088 M
Write the answer as a number in °C, unit excluded.

Examples with answers:
primarysequence="GCAAGGCGAAAGCCGTGC (((.(((....))).)))" valuetype=Tm unitsofmeasure=°C numericresult=68
primarysequence="GGTTTCGGAAACGGAACC ((((.((....)).))))" valuetype=Tm unitsofmeasure=°C numericresult=52.6

// query I am curious: what Tm value has been reported for GTCCTCCGAAAGGACGAC (((.(((....))).))) ?
// result 49.7

// query I am curious: what Tm value has been reported for GCGTCGAGACGC ((((....)))) ?
// result 61

// query I am curious: what Tm value has been reported for GTCAACCGAAAGGTAGAC (((.(((....))).))) ?
// result 51.5

// query I am curious: what Tm value has been reported for GGGTCCACGAAAGTGCCC (((..(((....)))))) ?
// result 40.8

// query I am curious: what Tm value has been reported for GTCGCAGGAAACTACGAC ((((.((....)).)))) ?
// result 46.3

// query I am curious: what Tm value has been reported for GGAGGCTCGAAAGAGTCC (((..(((....)))))) ?
// result 35.8

// query I am curious: what Tm value has been reported for GAACAGCCGAAAGGCTTC (((..(((....)))))) ?
// result 24.5

// query I am curious: what Tm value has been reported for GGTGTTCGAAAGAAAACC (((.(((....))).))) ?
// result 45.2

// query I am curious: what Tm value has been reported for GCTTGCGAAAGCACGAGC ((((((....)))..))) ?
// result 46.9

// query I am curious: what Tm value has been reported for GATCTATCATAGATC ((((((...)))))) ?
// result 40.1

// query I am curious: what Tm value has been reported for GTCACGCCGAAAGGCGAC (((..(((....)))))) ?
// result 32.1

// query I am curious: what Tm value has been reported for GCGGTAAACCGC ((((....)))) ?
// result 56

// query I am curious: what Tm value has been reported for GCAAACGAAAGTTCTTGC ((((((....)))..))) ?
// result 31.7

// query I am curious: what Tm value has been reported for GATCGTCCCTACGATC ((((((....)))))) ?
// result 55

// query I am curious: what Tm value has been reported for GCCCGGGCGAAAGCCGGC (((..(((....)))))) ?
// result 59.5

// query I am curious: what Tm value has been reported for GGTTTGGGAAACTAGACC (((.(.(....).).))) ?
// result 30.7
